Assay: Toxicity against Carassius auratus under laboratory conditions assessed as mortality at 17 ppm measured after 24 hr
Type: organism-based
Settings: in vivo
READOUT LABEL: mortality at 24 h, 17 ppm

TEST SMILES	MEASURED VALUE
CC1(C)CC[C@]2(C(=O)O)CC[C@]3(C)C(=CC[C@@H]4[C@@]5(C)CC[C@H](O)C(C)(C)[C@@H]5CC[C@]43C)[C@@H]2C1	0%
CC1(C)CC[C@]2(C(=O)O)CC[C@]3(C)C(=CC[C@@H]4[C@@]5(C)CC[C@H](O)[C@@](C)(CO)[C@@H]5CC[C@]43C)[C@@H]2C1	0%

----------
Experiment: Toxicity against Carassius auratus under laboratory conditions assessed as mortality at 54 ppm measured after 48 hr
Type: organism-based
Settings: in vivo
Recorded measurements of mortality at 48 h, 54 ppm, one per entry

TEST SMILES	mortality at 48 h, 54 ppm
CC1(C)CC[C@]2(C(=O)O)CC[C@]3(C)C(=CC[C@@H]4[C@@]5(C)CC[C@H](O)C(C)(C)[C@@H]5CC[C@]43C)[C@@H]2C1	0%
CC1(C)CC[C@]2(C(=O)O)CC[C@]3(C)C(=CC[C@@H]4[C@@]5(C)CC[C@H](O)[C@@](C)(CO)[C@@H]5CC[C@]43C)[C@@H]2C1	0%
